Cited source: paper PMC7109127

- Assay Method Text: phase 1b/2 study, plasma pharmacokinetics (LC-MS/MS, NCA and nonlinear mixed-effects model)
- Format: in vivo, patients
- Condition Summary: human, plasma, oral, 1 mg, Day 15; 1 mg; Model prediction; read-out: tmax, Median
Readout Label: tmax (h)
Answer in h, number only, no unit symbol.

Which tmax reading was recorded for the molecule COc1cc2nccc(Oc3ccc(NC(=O)Nc4cc(C)on4)c(Cl)c3)c2cc1OC [tivozanib] ? 7

----------
- Assay Method Text: phase 1b/2 study, plasma pharmacokinetics (LC-MS/MS, NCA and nonlinear mixed-effects model)
- Format: in vivo, patients
- Condition Summary: human, plasma, oral, 1 mg, Day 15; 1 mg; NCA and observation; read-out: tmax, Median
Readout Label: tmax
The reply should consist of the numeric value with the unit placed after it.

Entry under review: COc1cc2nccc(Oc3ccc(NC(=O)Nc4cc(C)on4)c(Cl)c3)c2cc1OC [tivozanib] . Reported tmax? 2.05 h

----------
- Assay Method Text: phase 1b/2 study, plasma pharmacokinetics (LC-MS/MS, NCA and nonlinear mixed-effects model)
- Format: in vivo, patients
- Condition Summary: human, plasma, oral, 1 mg, Day 1; 1 mg; Model prediction; read-out: AUC0–4, Mean
Readout Label: AUC(0-t) (ng·h/mL)
State the answer as a number, implicitly in ng·h/mL.

Quick one: AUC(0-t) for COc1cc2nccc(Oc3ccc(NC(=O)Nc4cc(C)on4)c(Cl)c3)c2cc1OC ? 14.3

----------
- Assay Method Text: phase 1b/2 study, plasma pharmacokinetics (LC-MS/MS, NCA and nonlinear mixed-effects model)
- Type: in vivo, patients
- Condition Summary: human, plasma, oral, 1 mg, Day 15; 1 mg; Model prediction; read-out: Cmax, Mean
Readout Label: Cmax (ng/mL)
Form entry: value (ng/mL) — number only.

Quick check: Cmax of COc1cc2nccc(Oc3ccc(NC(=O)Nc4cc(C)on4)c(Cl)c3)c2cc1OC [tivozanib] ? 50.7

----------
- Assay Method Text: phase 1b/2 study, plasma pharmacokinetics (LC-MS/MS, NCA and nonlinear mixed-effects model)
- Format: in vivo, patients
- Condition Summary: human, plasma, oral, 1 mg, Day 1; 1 mg; Model prediction; read-out: Cmax, Mean
- Description: LC-MS/MS analysis of the extracted samples was performed using an Agilent Technologies (Santa Clara, California) HPLC system and the API 3000 mass spectrometer (Sciex, Framingham, MA) with electrospray ionisation. […] Analytes were detected using multiple reaction monitoring in positive ion mode. […]
Readout Label: Cmax (ng/mL)
Hi! Could you send only the number? It should be in ng/mL, unit omitted.

Fill in: Cmax of COc1cc2nccc(Oc3ccc(NC(=O)Nc4cc(C)on4)c(Cl)c3)c2cc1OC [tivozanib] is ___ 8.75

----------
- Assay Method Text: phase 1b/2 study, plasma pharmacokinetics (LC-MS/MS, NCA and nonlinear mixed-effects model)
- Type: in vivo, patients
- Condition Summary: human, plasma, oral, 1 mg; typical population value; read-out: Apparent Volume of Distribution (V/F)
Readout Label: Vd/F (L)
Give just the number in L; leave the unit off.

Entry COc1cc2nccc(Oc3ccc(NC(=O)Nc4cc(C)on4)c(Cl)c3)c2cc1OC : reported Vd/F = ? 105

----------
- Assay Method Text: phase 1b/2 study, plasma pharmacokinetics (LC-MS/MS, NCA and nonlinear mixed-effects model)
- Assay type: in vivo, patients
- Condition Summary: human, plasma, oral, 1 mg, Day 1; 1 mg; Model prediction; read-out: tmax, Median
Readout Label: tmax (h)
Please give a number only; it is taken to be in h.

Which measured tmax value corresponds to COc1cc2nccc(Oc3ccc(NC(=O)Nc4cc(C)on4)c(Cl)c3)c2cc1OC ? 13.3

----------
- Assay Method Text: phase 1b/2 study, plasma pharmacokinetics (LC-MS/MS, NCA and nonlinear mixed-effects model)
- Assay type: in vivo, patients
- Condition Summary: human, plasma, oral, 1 mg, Day 1; 1 mg; Model prediction; read-out: AUC0–24, Mean
Readout Label: AUC(0-t) (ng·h/mL)
Write the answer as a number in ng·h/mL, unit excluded.

// lookup AUC(0-t) for COc1cc2nccc(Oc3ccc(NC(=O)Nc4cc(C)on4)c(Cl)c3)c2cc1OC [tivozanib] 176
